target: UniProt O43614; experiment: Radioligand binding assay ([3H]-SB649868 competition), hOx2R; settings: competition with about 1 nM [3H]-SB649868; CHO or HEK cell membranes expressing human orexin 2 receptor; read-out: binding hOx2R Kd
Sequence (O43614 whole entry): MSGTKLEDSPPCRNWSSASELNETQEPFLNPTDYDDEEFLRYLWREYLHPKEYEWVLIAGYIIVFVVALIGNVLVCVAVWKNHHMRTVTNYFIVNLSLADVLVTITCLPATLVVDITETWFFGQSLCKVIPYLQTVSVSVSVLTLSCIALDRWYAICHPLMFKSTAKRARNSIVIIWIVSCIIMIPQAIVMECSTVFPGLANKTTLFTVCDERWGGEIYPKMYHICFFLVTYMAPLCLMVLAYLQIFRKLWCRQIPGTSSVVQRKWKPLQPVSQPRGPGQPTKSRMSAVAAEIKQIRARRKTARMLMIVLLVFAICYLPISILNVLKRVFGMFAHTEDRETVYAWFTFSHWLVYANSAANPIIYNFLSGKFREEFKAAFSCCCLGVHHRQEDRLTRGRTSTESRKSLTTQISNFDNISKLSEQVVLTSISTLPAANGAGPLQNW
# Kd per entry

{"mol": "Cc1cc(C)nc(N2CCC3(CCCC(=O)N3Cc3cccc4[nH]ccc34)CC2)n1", "test-system": "UniProt O43614", "Kd (nM)": 12}
{"mol": "Cc1cc(C)nc(N2CCC3(CCCN(Cc4nn(C)cc4-c4ccccc4)C3=O)CC2)n1", "test-system": "UniProt O43614", "Kd (nM)": 166}
{"mol": "Cc1cc(C)nc(N2CCC3(CCCN(Cc4cn(C)c5ccccc45)C3=O)CC2)n1", "test-system": "UniProt O43614", "Kd (nM)": 153}
{"mol": "Cc1cc(C)nc(N2CCC3(CCCN(Cc4nn(C)nc4Br)C3=O)CC2)n1", "test-system": "UniProt O43614", "Kd (nM)": 178}
{"mol": "N#Cc1ccnc(N2CCC3(CCCN(Cc4c[nH]c5ccccc45)C3=O)CC2)n1", "test-system": "UniProt O43614", "Kd (nM)": 1100}
{"mol": "Cc1cc(C)nc(N2CCC3(CCCN(Cc4c[nH]c5ccccc45)C3=O)CC2)n1", "test-system": "UniProt O43614", "Kd (nM)": 35}
{"mol": "Cc1cc(N(C)C)nc(N2CCC3(CCCN(Cc4c[nH]c5ccccc45)C3=O)CC2)n1", "test-system": "UniProt O43614", "Kd (nM)": 28}
{"mol": "Cc1cc(C)nc(N2CCC3(CCCN(Cc4cccc(-c5noc(C)n5)c4)C3=O)CC2)n1", "test-system": "UniProt O43614", "Kd (nM)": 151}
